test system: NCI-H460 lung; assay: NCI-60 one-dose screen, 48 h (100 = growth as untreated, 0 = no growth, -100 = all killed); settings: 10 µM unless noted
Compounds without any hit were thinned out: in the full panel of roughly 83,000, 20% have a hit.
Documented growth across a set of compounds

[
  {
    "COMPOUND": "COc1cc(/C=C/C(=O)N2CCN(C(=O)/C=C/c3ccccc3)CC2)cc(OC)c1OC",
    "READING_UNIT": "%",
    "growth": 105
  },
  {
    "COMPOUND": "CCCn1cnc2c1c(=O)n(CCCCC(C)=O)c(=O)n2C",
    "READING_UNIT": "%",
    "growth": 103
  },
  {
    "COMPOUND": "CC[N+](C)(CC)CCCC(C)Nc1ccnc2cc(Cl)ccc12 (stereo not given)",
    "READING_UNIT": "%",
    "growth": 102
  },
  {
    "COMPOUND": "Cc1ccc(NC(=O)COC(=O)c2ccc(S(=O)(=O)N3CCCCCC3)cc2)cc1",
    "READING_UNIT": "%",
    "growth": 106
  },
  {
    "COMPOUND": "COc1ccc2c(c1)nc(N)c1c3cc(OC)c(OC)cc3cn21",
    "READING_UNIT": "%",
    "growth": 20.5
  }
]

====

system: HS 578T breast; assay: NCI-60 one-dose screen, 48 h (100 = growth as untreated, 0 = no growth, -100 = all killed); settings: 10 µM unless noted
About 83,000 compounds went through this panel and 20% of them were active in at least one assay; those are over-represented in the sample as a whole.
Documented growth across a set of compounds
MEASUREMENT_LABEL: growth (%)

[
  {
    "COMPOUND": "CCC(C)CC(CC)NCCN1CCN(C(CC)CC(C)CC)C1=S (stereo unspecified)",
    "NUMERIC_READOUT": 67.2
  },
  {
    "COMPOUND": "CN=C(NC)N/N=C(C)\\C=N\\NC(=NC)NC",
    "NUMERIC_READOUT": 102
  },
  {
    "COMPOUND": "Cc1nc2c(O)cccc2cc1CO",
    "NUMERIC_READOUT": 130
  },
  {
    "COMPOUND": "Cc1c(C(N)=O)sc2c1c(=O)n(Cc1ccccc1)c1nnc(SCC(=O)Nc3ccc(Cl)cc3)n21",
    "NUMERIC_READOUT": 6.54
  },
  {
    "COMPOUND": "COc1cc(Oc2cc(-c3cccnc3)ccc2NC(=O)Nc2ccc(F)cc2F)cc(OC)c1OC",
    "NUMERIC_READOUT": 99.9
  },
  {
    "COMPOUND": "c1ccc(-c2nnc(Nc3nnc(-c4ccccc4)s3)s2)cc1",
    "NUMERIC_READOUT": 100
  },
  {
    "COMPOUND": "O=C(Oc1ccc[nH]c1=O)c1cccc(Cl)c1",
    "NUMERIC_READOUT": 154
  },
  {
    "COMPOUND": "O=C(/C=C/c1cccnc1)NCCCCC1CCCN(C(=O)c2ccccc2)C1 (stereo unspecified)",
    "NUMERIC_READOUT": 52.2
  },
  {
    "COMPOUND": "CC(=O)NCCSC(=O)C(=O)SCCNC(C)=O",
    "NUMERIC_READOUT": 119
  },
  {
    "COMPOUND": "NC(=O)NN=C(C1CC1)C1CC1",
    "NUMERIC_READOUT": 97
  },
  {
    "COMPOUND": "COc1cc([C@@H]2c3cc4c(cc3C(O[C@@H]3O[C@@H]5CO[C@@H](c6cccs6)OC5[C@H](O)[C@H]3O)C3COC(=O)[C@@H]32)OCO4)cc(OC)c1O (stereo partly specified)",
    "NUMERIC_READOUT": -3.69
  },
  {
    "COMPOUND": "Oc1[nH]c2ccc(Cl)cc2c1/C=c1/ccc2c(c1)N=C(c1ccc(C(F)(F)F)cc1)N=2",
    "NUMERIC_READOUT": 74
  },
  {
    "COMPOUND": "NC(=O)c1ncn([C@@H]2O[C@H](CO)[C@@H](O)[C@H]2O)n1",
    "NUMERIC_READOUT": 113
  },
  {
    "COMPOUND": "CCC1(c2ccccc2)Oc2ccccc2-n2c(C#N)c3ccccc3c2C1=O (stereo unspecified)",
    "NUMERIC_READOUT": 105
  },
  {
    "COMPOUND": "Cc1nn(-c2ccc(Cl)cc2)c2nc3c(nc12)C(=O)c1ccccc1-3",
    "NUMERIC_READOUT": 63.7
  },
  {
    "COMPOUND": "COc1ccc(/C=N\\Nc2ccc([N+](=O)[O-])cn2)cc1OC",
    "NUMERIC_READOUT": 47.8
  },
  {
    "COMPOUND": "COc1ccc(C2=NNC(c3cc(Cc4ccc(O)c(C5CC(c6ccc(OC)cc6)=NN5)c4)ccc3O)C2)cc1 (stereo unspecified)",
    "NUMERIC_READOUT": 43
  },
  {
    "COMPOUND": "COC(=O)[C@]1(CCSC)N[C@H](c2cn(-c3ccccc3)nc2C)[C@@H]2C(=O)N(c3ccccc3)C(=O)[C@@H]21",
    "NUMERIC_READOUT": 93.7
  },
  {
    "COMPOUND": "N#Cc1cccc(/C=C(/C(=O)c2ccccc2)c2ccccc2)c1",
    "NUMERIC_READOUT": 55.4
  },
  {
    "COMPOUND": "CN1C(=O)/C(=C/c2nc(-c3cccc(F)c3)n3ccccc23)c2ccccc21",
    "NUMERIC_READOUT": 33
  },
  {
    "COMPOUND": "COc1cc2c(cc1OCCCOc1ccc(-c3cc4ccccc4c4ccccc34)cc1)N=C[C@@H]1CCCN1C2=O",
    "NUMERIC_READOUT": -15.3
  }
]
